# assay_procedure: Pharmacokinetics of Compound I in healthy volunteers after a single dose of Form B of Compound II
# Assay type: in vivo, human
# assay_conditions: human, plasma, oral, single 48 mg dose of Form B of Compound II
quantity: Tmax (h)

• CC(C)N1CCN(c2ccc(Nc3ncc4cc5n(c4n3)C3(CCCCC3)CNC5=O)nc2)CC1 = 2

* * *

# assay_procedure: Plasma concentration versus time of Compound I and metabolite Compound III in patients dosed QD or BID with Form B of Compound II plus fulvestrant
# Type: in vivo, human
# assay_conditions: human, plasma, oral, 650 mg, Cohort 5, 650 mg QD of Form B, Day 29, […]; read-out: Compound I Concentration, Mean
quantity: concentration at 24 h (ng/mL)

- CC(C)N1CCN(c2ccc(Nc3ncc4cc5n(c4n3)C3(CCCCC3)CNC5=O)nc2)CC1: 24.3

* * *

# assay_procedure: Plasma concentration versus time of Compound I and metabolite Compound III in patients dosed QD or BID with Form B of Compound II plus fulvestrant
# Format: in vivo, human
# assay_conditions: human, plasma, oral, 500 mg, Cohort 4, 500 mg QD of Form B, Day 8; read-out: Trough Compound I Concentration, Median
quantity: concentration at 8 day (ng/mL)

* CC(C)N1CCN(c2ccc(Nc3ncc4cc5n(c4n3)C3(CCCCC3)CNC5=O)nc2)CC1 [Compound I] | 17.2

* * *

# assay_procedure: Noncompartmental pharmacokinetic parameters (Cmax, Tmax, AUC, Racc) in QD and BID cohorts of Form B
# Type: in vivo, human
# assay_conditions: human, plasma, oral, 650 mg, Compound I; 650 mg QD of Form B; Cohort 5; Day 29; read-out: Tmax (Mean)
# Method: Analysis of plasma concentration versus time data for calculation of standard pharmacokinetic (PK) parameters following oral administration was conducted using Phoenix WinNonlin version 6.3 using actual blood sampling times. […]
quantity: Tmax (h)

- CC(C)N1CCN(c2ccc(Nc3ncc4cc5n(c4n3)C3(CCCCC3)CNC5=O)nc2)CC1 [Compound I]: 5.33

* * *

# assay_procedure: Plasma concentration versus time of Compound I and metabolite Compound III in patients dosed QD or BID with Form B of Compound II plus fulvestrant
# Format: in vivo, human
# assay_conditions: human, plasma, oral, 100 mg, Cohort 6, 100 mg BID of Form B, Day 29, 8.0 h; read-out: Compound I Concentration, Mean
quantity: concentration at 8 h (ng/mL)

- CC(C)N1CCN(c2ccc(Nc3ncc4cc5n(c4n3)C3(CCCCC3)CNC5=O)nc2)CC1 [Compound I]: 7.45

* * *

# assay_procedure: Plasma concentration versus time of Compound I and metabolite Compound III in patients dosed QD or BID with Form B of Compound II plus fulvestrant
# Format: in vivo, human
# assay_conditions: human, plasma, oral, 650 mg, Cohort 5, 650 mg QD of Form B, Day 29, 1.0 h; read-out: Compound I Concentration, Max
quantity: concentration at 1 h (ng/mL)

* CC(C)N1CCN(c2ccc(Nc3ncc4cc5n(c4n3)C3(CCCCC3)CNC5=O)nc2)CC1 | 29.6

* * *

# assay_procedure: Plasma concentration versus time of Compound I and metabolite Compound III in patients dosed QD or BID with Form B of Compound II plus fulvestrant
# Assay type: in vivo, human
# assay_conditions: human, plasma, oral, 100 mg, Cohort 6, 100 mg BID of Form B, Day 29, 12.0 h; read-out: Compound I Concentration, Mean
quantity: concentration at 12 h (ng/mL)

• CC(C)N1CCN(c2ccc(Nc3ncc4cc5n(c4n3)C3(CCCCC3)CNC5=O)nc2)CC1 = 7.16
